System: H-EMC-SS (Chondrosarcoma)
Assay name: combination Emax (second highest fraction inhibited in the dose matrix, 72 h); higher = more inhibition; extreme values may be limits of the assay
Measure name: combination Emax
Returns: the value as a bare number; no unit string appended.

Request: Tell me the measured combination Emax of Cc1c2c(nn1C)CSCc1cc(n(C)n1)CSc1cc(c3ccccc3c1)OCCCc1c(C(=O)O)n(C)c3c-2c(Cl)ccc13 [AZD5991] + CS(=O)(=O)CCNCc1ccc(-c2ccc3ncnc(Nc4ccc(OCc5cccc(F)c5)c(Cl)c4)c3c2)o1 [Lapatinib] (first compound max 1 µM, 7x7, partner max 10 µM) , please.
Result: 0.3

Request: Given the entry CN(C)CCCOc1ccc(-c2ccc3ncc4c(c3c2)n(C2CCOCC2)c(=O)n4C)cn1 [AZD0156] + CCN(CCO)CCCOc1ccc2c(Nc3cc(CC(=O)Nc4cccc(F)c4)[nH]n3)ncnc2c1 [AZD2811] (first compound max 1 µM, 7x7, partner max 1 µM) , report its measured combination Emax.
Result: 0.367

Request: Entry under review: O=C(c1cc(Cc2n[nH]c(=O)c3ccccc23)ccc1F)N1CCN(C(=O)C2CC2)CC1 [Olaparib] + CC1(C)CCC(CN2CCN(c3ccc(C(=O)NS(=O)(=O)c4ccc(NCC5CCOCC5)c([N+](=O)[O-])c4)c(Oc4cnc5[nH]ccc5c4)c3)CC2)=C(c2ccc(Cl)cc2)C1 [Venetoclax] (first compound max 10 µM, 7x7, partner max 1 µM) . Reported combination Emax?
Result: 0.119

Request: Could you share which combination Emax value was measured for CN(C)CCCOc1ccc(-c2ccc3ncc4c(c3c2)n(C2CCOCC2)c(=O)n4C)cn1 [AZD0156] + C=CCn1c(=O)c2cnc(Nc3ccc(N4CCN(C)CC4)cc3)nc2n1-c1cccc(C(C)(C)O)n1 [AZD1775] (first compound max 1 µM, partner max 1 µM) ?
Result: 0.346

====

Please provide measured combination Emax for the entries that follow.
Tested on: SCC-9 (Oral Cavity Carcinoma)
Assay name: combination Emax (second highest fraction inhibited in the dose matrix, 72 h); higher = more inhibition; extreme values may be limits of the assay

Request: Fill blank: measured combination Emax of the compound Cc1cc2ncnn2cc1Nc1ncc2c(n1)n(C1CCOCC1)c(=O)n2C [AZD7648] + CCN(CCO)CCCOc1ccc2c(Nc3cc(CC(=O)Nc4cccc(F)c4)[nH]n3)ncnc2c1 [AZD2811] (first compound max 10 µM, 7x7, partner max 1 µM) is ____.
Result: 0.342

Request: Endpoint output: combination Emax of CN(CCO)CC[C@H](CSc1ccccc1)Nc1ccc(S(=O)(=O)NC(=O)c2ccc(N3CCC([C@@H](O)c4ccccc4-c4ccc(Cl)cc4)CC3)cc2)cc1S(=O)(=O)C(F)(F)F [AZD4320] + Cn1cnc2c(F)c(Nc3ccc(Br)cc3Cl)c(C(=O)NOCCO)cc21 [Selumetinib] (first compound max 1 µM, 7x7, partner max 3 µM) . Value?
Result: 0.67

Request: Please give the measured combination Emax for this compound: CN(C)CCCOc1ccc(-c2ccc3ncc4c(c3c2)n(C2CCOCC2)c(=O)n4C)cn1 [AZD0156] + C[C@@H]1COCCN1C2=NC(=NC(=C2)C3(CC3)[S@](=N)(=O)C)C4=C5C=CNC5=NC=C4 [AZD6738] (first compound max 1 µM, 7x7, partner max 10 µM)
Result: 0.321

Request: Reported combination Emax for Cc1c2c(nn1C)CSCc1cc(n(C)n1)CSc1cc(c3ccccc3c1)OCCCc1c(C(=O)O)n(C)c3c-2c(Cl)ccc13 [AZD5991] + CC(=O)O[C@H]1C(=O)[C@@]2(C)[C@H]([C@H](OC(=O)c3ccccc3)[C@]3(O)C[C@H](OC(=O)[C@H](O)[C@@H](NC(=O)c4ccccc4)c4ccccc4)C(C)=C1C3(C)C)[C@]1(OC(C)=O)CO[C@@H]1C[C@@H]2O [Paclitaxel] (first compound max 1 µM, 7x7, partner max 3 µM) : what is it?
Result: 0.614

Request: Please report the recorded combination Emax for CN(C)CCCOc1ccc(-c2ccc3ncc4c(c3c2)n(C2CCOCC2)c(=O)n4C)cn1 [AZD0156] + C=CCn1c(=O)c2cnc(Nc3ccc(N4CCN(C)CC4)cc3)nc2n1-c1cccc(C(C)(C)O)n1 [AZD1775] (first compound max 1 µM, partner max 1 µM) .
Result: 0.168

Request: Query: combination Emax; subject: N#Cc1cnc(Nc2cc(NC[C@H]3CNCCO3)c(C(F)(F)F)cn2)cn1 [SRA737] + O=c1[nH]cc(F)c(=O)[nH]1 [5-Fluorouracil] (first compound max 10 µM, 7x7, partner max 20 µM)
Result: 0.319

Request: Reported combination Emax, compound N#Cc1cnc(Nc2cc(NC[C@H]3CNCCO3)c(C(F)(F)F)cn2)cn1 [SRA737] + C=CCn1c(=O)c2cnc(Nc3ccc(N4CCN(C)CC4)cc3)nc2n1-c1cccc(C(C)(C)O)n1 [AZD1775] (first compound max 10 µM, partner max 1 µM) : ____
Result: 0.326

Request: Which combination Emax reading was recorded for the compound C[C@@H](Nc1cc(F)cc(F)c1)c1cc(C(=O)N(C)C)cc2c(=O)cc(N3CCOCC3)oc12 [AZD8186] + C1CN(CCC1(C(=O)N[C@@H](CCO)C2=CC=C(C=C2)Cl)N)C3=NC=NC4=C3C=CN4 [AZD5363] (first compound max 10 µM, 7x7, partner max 10 µM) ?
Result: 0.351

Request: Give its combination Emax value. Item: C=CCn1c(=O)c2cnc(Nc3ccc(N4CCN(C)CC4)cc3)nc2n1-c1cccc(C(C)(C)O)n1 [AZD1775] + CCc1c2c(nc3ccc(O)cc13)-c1cc3c(c(=O)n1C2)COC(=O)[C@]3(O)CC [SN-38] (first compound max 1 µM, partner max 0.3 µM)
Result: 0.557

Request: Please look up its combination Emax: CC(=O)c1c(C)c2cnc(Nc3ccc(N4CCNCC4)cn3)nc2n(C2CCCC2)c1=O [Palbociclib] + Cc1c2c(nn1C)CSCc1cc(n(C)n1)CSc1cc(c3ccccc3c1)OCCCc1c(C(=O)O)n(C)c3c-2c(Cl)ccc13 [AZD5991] (first compound max 10 µM, 7x7, partner max 1 µM)
Result: 0.217

Request: combination Emax lookup needed for CC1(C)CCC(CN2CCN(c3ccc(C(=O)NS(=O)(=O)c4ccc(NCC5CCOCC5)c([N+](=O)[O-])c4)c(Oc4cnc5[nH]ccc5c4)c3)CC2)=C(c2ccc(Cl)cc2)C1 [Venetoclax] + Cc1cc2ncnn2cc1Nc1ncc2c(n1)n(C1CCOCC1)c(=O)n2C [AZD7648] (first compound max 1 µM, 7x7, partner max 10 µM) , thanks.
Result: 0.194

Request: Report combination Emax for CC1(C)CCC(CN2CCN(c3ccc(C(=O)NS(=O)(=O)c4ccc(NCC5CCOCC5)c([N+](=O)[O-])c4)c(Oc4cnc5[nH]ccc5c4)c3)CC2)=C(c2ccc(Cl)cc2)C1 [Venetoclax] + COc1cc(Nc2ncc3c(n2)-c2ccc(Cl)cc2C(c2c(F)cccc2OC)=NC3)ccc1C(=O)O [Alisertib] (first compound max 1 µM, 7x7, partner max 10 µM) please.
Result: 0.274

====

Tested on: ASH-3 (Thyroid Gland Carcinoma)
Assay name: Bliss excess, mean over the matrix (fraction); higher = more synergy
Could you please report measured Bliss excess for the items listed next?

Request: Which Bliss excess is reported for this compound? Cc1c2c(nn1C)CSCc1cc(n(C)n1)CSc1cc(c3ccccc3c1)OCCCc1c(C(=O)O)n(C)c3c-2c(Cl)ccc13 [AZD5991] + CC1(C)CCC(CN2CCN(c3ccc(C(=O)NS(=O)(=O)c4ccc(NCC5CCOCC5)c([N+](=O)[O-])c4)c(Oc4cnc5[nH]ccc5c4)c3)CC2)=C(c2ccc(Cl)cc2)C1 [Venetoclax] (first compound max 1 µM, 7x7, partner max 1 µM)
Result: -0.038

Request: I am curious: what Bliss excess value has been reported for COc1cccc2c1C(=O)c1c(O)c3c(c(O)c1C2=O)C[C@@](O)(C(=O)CO)C[C@@H]3O[C@H]1C[C@H](N)[C@H](O)[C@H](C)O1 [Doxorubicin] + Cc1cc2ncnn2cc1Nc1ncc2c(n1)n(C1CCOCC1)c(=O)n2C [AZD7648] (first compound max 1 µM, 7x7, partner max 10 µM) ?
Result: 0.0829

====

System: KYSE-50 (Esophageal Squamous Cell Carcinoma)
Assay name: Bliss excess, mean over the matrix (fraction); higher = more synergy
Measure name: Bliss excess
Lab note: record just the number, no unit beside it.

Request: Item under review: COc1nnc2ccc(N3CCC(c4ccc(OCCN5CCN(C)C(=O)[C@H]5C)cc4)CC3)nn12 [AZD5153] + CC1(C)CCC(CN2CCN(c3ccc(C(=O)NS(=O)(=O)c4ccc(NCC5CCOCC5)c([N+](=O)[O-])c4)c(Oc4cnc5[nH]ccc5c4)c3)CC2)=C(c2ccc(Cl)cc2)C1 [Venetoclax] (first compound max 1 µM, 7x7, partner max 1 µM) . Reported Bliss excess?
Result: -0.0591

Request: What value of Bliss excess has been recorded for this entry: CN(CCO)CC[C@H](CSc1ccccc1)Nc1ccc(S(=O)(=O)NC(=O)c2ccc(N3CCC([C@@H](O)c4ccccc4-c4ccc(Cl)cc4)CC3)cc2)cc1S(=O)(=O)C(F)(F)F [AZD4320] + CN(C)CCCOc1ccc(-c2ccc3ncc4c(c3c2)n(C2CCOCC2)c(=O)n4C)cn1 [AZD0156] (first compound max 1 µM, 7x7, partner max 1 µM)
Result: -0.0341

Request: Would you mind telling me what Bliss excess value was observed for COc1cccc(OCCCN)c1-c1cc(Nc2cnc(C#N)cn2)n[nH]1 [Prexasertib] + C=CCn1c(=O)c2cnc(Nc3ccc(N4CCN(C)CC4)cc3)nc2n1-c1cccc(C(C)(C)O)n1 [AZD1775] (first compound max 1 µM, partner max 1 µM) ?
Result: 0.0242
